Molecular target: SARS-CoV-2 nucleocapsid (N) protein, wild type (SARS-CoV-2 (wild type), UniProt P0DTC9 1-419)
Assay: BLI; BLI ([…], DPBS + 0.5 mM MgCl2 + 1 mM CaCl2, pH 7.4; […] (PBST)
Details: protein: commercial; tags: His; chain copies: 2
# note: exactly 9 nM is not below, so it is false; use true for Kd strictly under it

As a guide, the following entries are already answered.
ATTCATGCGCCAATAGTGGTTTGGAAATGTCTCCCCATACGCATAG (ssDNA) [tNSP5] :: false
NSP3 (ssDNA) DNA: CTCCTCTGACTGTAACCACGCAGCGTCACGTGTTGTTCCCCATTGTACTGATTCGTCGTGGCATAGGTAGTCCAGAAGCC :: true
tNSP9 (ssDNA) DNA: TGTAACCACGTGCTAGATTACGTAACTGGTTGCTACGGGTTTCATCCTCGGCATAGGTA :: false
tNSP12 (ssDNA) DNA: TGTAACCACGTGGTTCGCCCAGTTCCGTTCAATACACTCAACCCTGCACGGCATAGGTA :: true
A48 (ssDNA) DNA: GCTGGATGTCGCTTACGACAATATTCCTTAGGGGCACCGCTACATTGACACATCCAGC :: true

Ask | Here's an entry: CTTATGCACCAGGGGCCCGGTTCGGGCAGGCGCAAACACGGCATAGG (ssDNA) [tNSP10] . Is its Kd below 9 nM?
Reply | true

Ask | Follow-up item: NSP2 (ssDNA) DNA: CTCCTCTGACTGTAACCACGTATTGCGTTCCAGTCCCTATGACCAACGTCACAATAAGTCGCATAGGTAGTCCAGAAGCC
Reply | true

Ask | Follow-up item: NSP1 (ssDNA) DNA: CTCCTCTGACTGTAACCACGGCGCAAGCCGGGGTGTACGTGTTATACGTGCGTGTATCGAGCATAGGTAGTCCAGAAGCC
Reply | true
